Measured ratio of its own IC50 to that of the control peptide values are reported for all entries that follow.
biological target: T1, human MHC class II allotype HLA-DRB1*0401 (human); experiment: competitive MHC class II binding assay; competitor control peptide influenza haemagglutinin 307-319;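 note: each test peptide was scored on how well it displaces the known control binder from each human MHC class II allotype studied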
T1 construct: Source and construct of the MHC protein in the assay are not described
Lab note: jot the number down without any unit.

BINDER: KPFQLEAVFEANQNT (Synthetic peptide, 88.7% purity) [HDM21]
EXPERIMENTAL_VALUE: 11.2
--
BINDER: HDDVVSMEYDLAYKL (Synthetic peptide, 80.9% purity) [HDM39A]
EXPERIMENTAL_VALUE: 76.2
--
BINDER: KPFQLEAVFEANQNTK (Synthetic peptide, 90.1% purity) [HDM21A]
EXPERIMENTAL_VALUE: 52.2

Inquiry: Need ratio of its own IC50 to that of the control peptide of EAVFEANQNTKTAK (Synthetic peptide, 90.3% purity) [HDM22A] , thanks.
Reply text: 329

Inquiry: Need ratio of its own IC50 to that of the control peptide of RGKPFQLEAVFEANQNT (Synthetic peptide, 82.6% purity) [HDM21B] , thanks.
Reply text: 0.78

The reported numbers originate from patent US9340580B2.
